Tested on: Mus musculus
Assay: In vivo antimalarial activity in mice (Mus musculus) against chloroquine-resistant Plasmodium yoelii species. NS after subcutaneous administration
Format: functional
Please use Fulfilled for ED50 under 2 mg kg-1 5day-1 and Not fulfilled for everything else, ties included.

Quick check: ED50 of CC(=O)OC1(C)CCC2CC1OO[C@@]2(C)CS(=O)(=O)c1ccccc1 (stereo in doubt; 39a) under 2 mg kg-1 5day-1?
Not fulfilled

Quick check: ED50 of CCN(CC)CCCC(C)Nc1ccnc2cc(Cl)ccc12 (stereo unspecified) under 2 mg kg-1 5day-1?
Not fulfilled

Quick check: ED50 of CC1(OCc2ccccc2)CCC2CC1OO[C@@]2(C)CS(=O)(=O)c1ccccc1 (stereo partly specified) under 2 mg kg-1 5day-1?
Fulfilled

Quick check: ED50 of C[C@@H]1CC[C@H]2[C@@H](C)C(=O)O[C@@H]3O[C@@]4(C)CC[C@@H]1[C@]32OO4 under 2 mg kg-1 5day-1?
Not fulfilled

Quick check: ED50 of COc1ccc(COC2(C)CCC3CC2OO[C@@]3(C)CS(=O)(=O)c2ccccc2)cc1 (stereo partly specified) under 2 mg kg-1 5day-1?
Not fulfilled

Quick check: ED50 of CC1(OCc2ccccc2)CCC2CC1OO[C@]2(C)CS(=O)(=O)c1ccccc1 (stereo partly specified) under 2 mg kg-1 5day-1?
Fulfilled

* * *

Tested on: Mus musculus
Experiment: In vivo antimalarial activity in mice (Mus musculus) against chloroquine-sensitive Plasmodium berghei N after subcutaneous administration
Assay type: functional
observedProperty: log10 ED90 (log10 of the value in mg kg-1 5day-1)
Hey, these are logged values: log10 of ED90, mg kg-1 5day-1 being the unit before logging.

Look up log10 ED90 for this compound: CO[C@H]1O[C@@H]2O[C@@]3(C)CC[C@H]4[C@H](C)CC[C@@H]([C@H]1C)[C@@]24OO3 [ARTEMETHER]
0.04

Look up log10 ED90 for this compound: CC(=O)OC1(C)CCC2CC1OO[C@@]2(C)CS(=O)(=O)c1ccccc1 (stereo in doubt; 39a)
0.86

Look up log10 ED90 for this compound: C[C@@H]1[C@H](OCc2ccc(C(=O)O)cc2)O[C@@H]2O[C@@]3(C)CC[C@@H]4[C@@H](C)CC[C@@H]1[C@]24OO3 [ARTELINIC ACID]
1.15

Look up log10 ED90 for this compound: C[C@@H]1CC[C@H]2[C@@H](C)C(=O)O[C@@H]3O[C@@]4(C)CC[C@@H]1[C@]32OO4 [ARTEMISININ]
0.40

Look up log10 ED90 for this compound: CCN(CC)CCCC(C)Nc1ccnc2cc(Cl)ccc12 (stereo unspecified) [CHLOROQUINE]
0.08

Look up log10 ED90 for this compound: C[C@@H]1C(=O)C[C@H]2C[C@@H]1OO[C@@]2(C)/C=C\c1ccc(C(F)(F)F)cc1C(F)(F)F [ARTEFLENE]
0.59

Look up log10 ED90 for this compound: COc1ccc(COC2(C)CCC3CC2OO[C@@]3(C)CS(=O)(=O)c2ccccc2)cc1 (stereo partly specified)
0.36

Look up log10 ED90 for this compound: CC1(OCc2ccccc2)CCC2CC1OO[C@]2(C)CS(=O)(=O)c1ccccc1 (stereo partly specified)
0.11

Look up log10 ED90 for this compound: CC1(OCc2ccccc2)CCC2CC1OO[C@@]2(C)CS(=O)(=O)c1ccccc1 (stereo partly specified)
0.23

Look up log10 ED90 for this compound: CCO[C@H]1O[C@@H]2O[C@@]3(C)CC[C@H]4[C@H](C)CC[C@@H]([C@H]1C)[C@@]24OO3 [ARTEMOTIL]
0.15

* * *

Test system: Mus musculus
Assay: In vivo antimalarial activity in mice (Mus musculus) against chloroquine-sensitive Plasmodium berghei N after oral administration
Type: functional
Can you tell me ED50 for the items I'm about to list?
Only the number, expressed in mg kg-1 5day-1, is required.

Report ED50 for C[C@@H]1C(=O)C[C@H]2C[C@@H]1OO[C@@]2(C)/C=C\c1ccc(C(F)(F)F)cc1C(F)(F)F [ARTEFLENE] tested on Mus musculus.
10.4

Report ED50 for CC1(OCc2ccccc2)CCC2CC1OO[C@@]2(C)CS(=O)(=O)c1ccccc1 (stereo partly specified) tested on Mus musculus.
10.5

Report ED50 for CC1(OCc2ccccc2)CCC2CC1OO[C@]2(C)CS(=O)(=O)c1ccccc1 (stereo partly specified) tested on Mus musculus.
4.2

Report ED50 for CO[C@H]1O[C@@H]2O[C@@]3(C)CC[C@H]4[C@H](C)CC[C@@H]([C@H]1C)[C@@]24OO3 [ARTEMETHER] tested on Mus musculus.
3.1

Report ED50 for CCN(CC)CCCC(C)Nc1ccnc2cc(Cl)ccc12 (stereo unspecified) [CHLOROQUINE] tested on Mus musculus.
1.9

Report ED50 for C[C@@H]1CC[C@H]2[C@@H](C)C(=O)O[C@@H]3O[C@@]4(C)CC[C@@H]1[C@]32OO4 [ARTEMISININ] tested on Mus musculus.
5
